protocolDescription: Metabolic stability in dog microsomes
runConditions: Dog microsome, 45 min
measurementType: % remaining at 45 min (%)
Form entry: value (%) — number only.

Dear colleague, please send me the reported % remaining at 45 min for COc1ccc(C(=O)Nc2cc(-c3nc4c(F)cccc4[nH]3)[nH]n2)cc1Cl when you can.
31

Dear colleague, please send me the reported % remaining at 45 min for COc1ccc(C(=O)Nc2cc(-c3nc4ccccc4[nH]3)n[nH]2)cc1Cl [Compound 1, reference compound] when you can.
12

Dear colleague, please send me the reported % remaining at 45 min for O=C(Nc1cc(-c2nc3ccccc3[nH]2)n[nH]1)c1ccc(O)c(Cl)c1 when you can.
88

Dear colleague, please send me the reported % remaining at 45 min for COc1cc(C(=O)Nc2cc(-c3nc4ccccc4[nH]3)n[nH]2)ccc1Cl when you can.
53

* * *

protocolDescription: Metabolic stability in human hepatocytes
runConditions: human, hepatocytes (cryopreserved)
measurementType: hepatocyte CLint at 1.5 h, 0.3 µM (µL/min/1e6 cells)
Form entry: value (µL/min/1e6 cells) — number only.

Dear colleague, please send me the reported hepatocyte CLint at 1.5 h, 0.3 µM for O=C(Nc1cc(-c2nc3ccccc3[nH]2)n[nH]1)c1ccc(N2CCNCC2)cc1 when you can.
2.6

Dear colleague, please send me the reported hepatocyte CLint at 1.5 h, 0.3 µM for CN1CCN(c2ccc(C(=O)Nc3cc(-c4nc5ccccc5[nH]4)n[nH]3)cc2)CC1 [Compound 2, reference compound] when you can.
18

* * *

protocolDescription: Metabolic stability in dog microsomes
runConditions: dog, microsomes, pH 7.4
measurementType: microsomal CLint at 0.3 μM

Dear colleague, please send me the reported microsomal CLint at 0.3 μM for O=C(Nc1cc(-c2nc3ccccc3[nH]2)n[nH]1)c1ccc(O)c(Cl)c1 when you can.
< 20 µL/min/mg

* * *

protocolDescription: Metabolic stability in mouse microsomes
Assay type: in vitro ADME
runConditions: Mouse microsome, 0.3 μM, 45 min
Provide the recorded % remaining at 45 min for the entries that follow.
Form entry: value (%) — number only.

Dear colleague, please send me the reported % remaining at 45 min for CN1CCN(c2ccc(C(=O)Nc3cc(-c4nc5ccccc5[nH]4)n[nH]3)cc2)CC1 [Compound 2, reference compound] when you can.
10

Dear colleague, please send me the reported % remaining at 45 min for O=C(Nc1cc(-c2nc3ccccc3[nH]2)n[nH]1)c1ccc(N2CCNCC2)cc1 when you can.
68

Dear colleague, please send me the reported % remaining at 45 min for O=C(Nc1cc(-c2nc3ccccc3[nH]2)[nH]n1)c1ccc(N2CCOCC2)cc1 when you can.
58

Dear colleague, please send me the reported % remaining at 45 min for CC(=O)N1CCN(c2ccc(C(=O)Nc3cc(-c4nc5ccccc5[nH]4)n[nH]3)cc2)CC1 when you can.
44

* * *

target: acetylcholinesterase (AChE) (Homo sapiens, UniProt P22303)
Construct: host or cells: CHO cells
Sequence (P22303 32-614): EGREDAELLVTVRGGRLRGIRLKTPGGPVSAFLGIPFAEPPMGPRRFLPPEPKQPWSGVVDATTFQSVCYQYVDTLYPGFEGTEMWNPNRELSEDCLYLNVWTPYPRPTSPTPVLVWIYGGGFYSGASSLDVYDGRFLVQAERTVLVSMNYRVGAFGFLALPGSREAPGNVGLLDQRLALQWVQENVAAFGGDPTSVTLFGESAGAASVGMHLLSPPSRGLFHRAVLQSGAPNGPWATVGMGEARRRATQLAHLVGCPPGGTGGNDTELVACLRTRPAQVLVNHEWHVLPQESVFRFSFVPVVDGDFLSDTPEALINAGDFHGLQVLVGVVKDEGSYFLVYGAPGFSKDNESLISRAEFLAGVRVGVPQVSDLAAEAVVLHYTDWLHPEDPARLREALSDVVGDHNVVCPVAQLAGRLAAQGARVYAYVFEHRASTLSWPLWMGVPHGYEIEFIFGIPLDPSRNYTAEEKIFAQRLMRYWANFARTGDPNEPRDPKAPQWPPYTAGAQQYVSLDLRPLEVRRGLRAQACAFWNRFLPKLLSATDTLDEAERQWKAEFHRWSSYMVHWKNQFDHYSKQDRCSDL
protocolDescription: biochemical
Format: biochemical
runConditions: selectivity studies, Table 4; read-out: AChE IC50
Provide the recorded IC50 for the entries that follow.

Dear colleague, please send me the reported IC50 for CN1CCN(c2ccc(C(=O)Nc3cc(-c4nc5ccccc5[nH]4)n[nH]3)cc2)CC1 [Compound 2, reference compound] when you can.
1710 nM

Dear colleague, please send me the reported IC50 for COc1ccc(C(=O)N(C)c2cc(-c3nc4ccccc4[nH]3)n[nH]2)cc1Cl when you can.
> 10000 nM

* * *

target: human FOXO1 (Homo sapiens, UniProt Q12778)
Sequence (Q12778 whole entry): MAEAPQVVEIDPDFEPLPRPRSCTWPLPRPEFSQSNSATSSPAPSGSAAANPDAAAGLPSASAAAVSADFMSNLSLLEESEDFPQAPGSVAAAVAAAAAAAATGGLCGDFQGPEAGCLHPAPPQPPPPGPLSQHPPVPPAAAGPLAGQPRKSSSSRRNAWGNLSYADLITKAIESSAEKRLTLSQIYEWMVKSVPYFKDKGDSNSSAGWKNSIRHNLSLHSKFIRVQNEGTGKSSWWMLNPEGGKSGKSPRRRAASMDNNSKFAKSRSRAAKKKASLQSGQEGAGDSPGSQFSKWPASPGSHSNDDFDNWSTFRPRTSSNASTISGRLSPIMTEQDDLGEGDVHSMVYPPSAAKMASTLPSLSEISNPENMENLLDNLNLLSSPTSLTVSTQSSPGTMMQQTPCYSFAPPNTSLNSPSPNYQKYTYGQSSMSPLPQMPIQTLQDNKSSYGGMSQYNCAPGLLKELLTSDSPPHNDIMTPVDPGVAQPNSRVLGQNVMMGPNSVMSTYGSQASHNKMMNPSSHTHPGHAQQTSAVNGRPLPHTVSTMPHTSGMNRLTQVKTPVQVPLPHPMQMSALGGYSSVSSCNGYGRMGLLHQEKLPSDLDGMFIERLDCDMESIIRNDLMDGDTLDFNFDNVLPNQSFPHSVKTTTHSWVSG
protocolDescription: FOXO1 transcriptional reporter assay (insulin response element firefly luciferase / Renilla) in HEK293 cells
runConditions: HEK293 cells transfected with human FOXO1, 24 hours, class combines IC50 and maximal inhibition; read-out: IC50 (active range)
pIC50: −log10 of the molar value.
Provide the recorded pIC50 for the entries that follow.

Dear colleague, please send me the reported pIC50 for COc1ccc(C(=O)Nc2cc(-c3nc4cc(OC(F)(F)F)ccc4[nH]3)[nH]n2)cc1Cl when you can.
5.00 to 6.00

Dear colleague, please send me the reported pIC50 for CN1CCC(c2ccc(C(=O)Nc3cc(-c4nc5ccccc5[nH]4)n[nH]3)cc2)CC1 when you can.
> 6.00

Dear colleague, please send me the reported pIC50 for Nc1cc(-c2nc3ccccc3[nH]2)n[nH]1 when you can.
< 5.00

Dear colleague, please send me the reported pIC50 for CC(=O)N1CCN(c2ccc(C(=O)Nc3cc(-c4nc5ccccc5[nH]4)n[nH]3)cc2)CC1 when you can.
> 6.00

Dear colleague, please send me the reported pIC50 for COc1ccc(C(=O)Nc2cc(-c3nc4cc(C(F)(F)F)ccc4[nH]3)[nH]n2)cc1Cl when you can.
> 6.00

Dear colleague, please send me the reported pIC50 for CC(=O)Nc1cc(-c2nc3ccccc3[nH]2)n[nH]1 when you can.
< 5.00

Dear colleague, please send me the reported pIC50 for CN1CCN(c2ccc(C(=O)Nc3cc(-c4nc5ccccc5[nH]4)n[nH]3)cc2)CC1 [Compound 2, reference compound] when you can.
> 7.30

Dear colleague, please send me the reported pIC50 for COc1ccc(C(=O)Nc2cc(-c3nc4c(C(F)(F)F)cccc4[nH]3)[nH]n2)cc1Cl when you can.
> 6.00

* * *

protocolDescription: Metabolic stability in human microsomes
runConditions: human, microsomes, pH 7.4
Provide the recorded microsomal CLint at 0.75 h, 0.3 μM for the entries that follow.
Form entry: value (µL/min/mg) — number only.

Dear colleague, please send me the reported microsomal CLint at 0.75 h, 0.3 μM for COc1cc(C(=O)Nc2cc(-c3nc4ccccc4[nH]3)n[nH]2)ccc1Cl [Compound 20] when you can.
57

Dear colleague, please send me the reported microsomal CLint at 0.75 h, 0.3 μM for COc1ccc(C(=O)Nc2cc(-c3nc4c(F)cccc4[nH]3)[nH]n2)cc1Cl [Compound 73] when you can.
184

Dear colleague, please send me the reported microsomal CLint at 0.75 h, 0.3 μM for COc1ccc(C(=O)Nc2cc(-c3nc4ccccc4[nH]3)n[nH]2)cc1Cl [Compound 1, reference compound] when you can.
306

* * *

target: acetylcholinesterase (AChE) (Homo sapiens, UniProt P22303)
Construct: host or cells: CHO cells
protocolDescription: biochemical
Type: biochemical
runConditions: Human recombinant AChE expressed in CHO cells; read-out: AChE Inhibitor IC50
Protocol: The protein source was Human (recombinant) Expressed in CHO cells. The enzymatic activity was studied. The method employed was the detection of conversion of acetylthiocholine to thiocholine using DTNB. The substrate employed was Acetylthiocholine. Enzyme and test compound were pre-incubated for 15 minutes at room temp before substrate addition. […] Signal was detected by measuring absorbance at 405 nm. Percentage inhibition was calculated using the following formula: […]
Provide the recorded IC50 for the entries that follow.

Dear colleague, please send me the reported IC50 for O=C(Nc1cc(-c2nc3ccccc3[nH]2)[nH]n1)c1ccc(N2CCOCC2)cc1 when you can.
> 10 µM

Dear colleague, please send me the reported IC50 for O=C(Nc1cc(-c2nc3ccccc3[nH]2)n[nH]1)c1ccc(N2CCNCC2)cc1 when you can.
> 10 µM

* * *

protocolDescription: Metabolic stability in dog microsomes
runConditions: dog, microsomes, pH 7.4
Provide the recorded microsomal CLint at 0.75 h, 0.3 μM for the entries that follow.
Form entry: value (µL/min/mg) — number only.

Dear colleague, please send me the reported microsomal CLint at 0.75 h, 0.3 μM for COc1cc(C(=O)Nc2cc(-c3nc4ccccc4[nH]3)n[nH]2)ccc1Cl [Compound 20] when you can.
58

Dear colleague, please send me the reported microsomal CLint at 0.75 h, 0.3 μM for COc1ccc(C(=O)Nc2cc(-c3nc4ccccc4[nH]3)n[nH]2)cc1Cl [Compound 1, reference compound] when you can.
185

Dear colleague, please send me the reported microsomal CLint at 0.75 h, 0.3 μM for COc1ccc(C(=O)Nc2cc(-c3nc4c(F)cccc4[nH]3)[nH]n2)cc1Cl [Compound 73] when you can.
104

* * *

protocolDescription: Metabolic stability in human microsomes
runConditions: human, microsomes, pH 7.4
measurementType: microsomal CLint at 0.3 μM

Dear colleague, please send me the reported microsomal CLint at 0.3 μM for O=C(Nc1cc(-c2nc3ccccc3[nH]2)n[nH]1)c1ccc(O)c(Cl)c1 [Compound 24] when you can.
< 20 µL/min/mg

* * *

Provide the recorded microsomal CLint at 0.75 h, 0.3 μM for the entries that follow.
protocolDescription: Metabolic stability in mouse microsomes
Assay type: in vitro ADME
runConditions: CD-1, liver microsomes, pH 7.4; Mouse microsome, 0.3 μM, in vitro intrinsic clearance
Form entry: value (µL/min/mg) — number only.

Dear colleague, please send me the reported microsomal CLint at 0.75 h, 0.3 μM for O=C(Nc1cc(-c2nc3ccccc3[nH]2)[nH]n1)c1ccc(N2CCOCC2)cc1 when you can.
52

Dear colleague, please send me the reported microsomal CLint at 0.75 h, 0.3 μM for O=C(Nc1cc(-c2nc3ccccc3[nH]2)n[nH]1)c1ccc(N2CCNCC2)cc1 when you can.
41

Dear colleague, please send me the reported microsomal CLint at 0.75 h, 0.3 μM for CC(=O)N1CCN(c2ccc(C(=O)Nc3cc(-c4nc5ccccc5[nH]4)n[nH]3)cc2)CC1 when you can.
70

Dear colleague, please send me the reported microsomal CLint at 0.75 h, 0.3 μM for CN1CCN(c2ccc(C(=O)Nc3cc(-c4nc5ccccc5[nH]4)n[nH]3)cc2)CC1 [Compound 2, reference compound] when you can.
206
